Hi there, I'd appreciate the recorded LC50 for every entry that follows.
Tested on: Panel leukemia (Carcinoma cell lines)
procedureSummary: Anticancer activity against human Panel leukemia (Carcinoma cell lines) assessed as lethality incubated for 48 hrs by Sulphorhodamine B assay
Assay type: functional

Field: example entries. Status: answers known.
>>> reportedmeasurement("c1ccc(CNc2nc(Nc3ccc(-c4nc5ccccc5[nH]4)cc3)c3cn[nH]c3n2)cc1")
"> 100 µM"
>>> reportedmeasurement("c1ccc2[nH]c(-c3ccc(Nc4nc(N5CCCC5)nc5[nH]ncc45)cc3)nc2c1")
"31.8 µM"
>>> reportedmeasurement("OCCN1CCN(c2nc(Nc3ccc(-c4nc5ccccc5[nH]4)cc3)c3cn[nH]c3n2)CC1")
"> 100 µM"

Let's switch to this compound now.
query: // lookup LC50 | system=Panel leukemia (Carcinoma cell lines) | key= Fc1ccc(Nc2nc(Nc3ccc(-c4nc5ccccc5[nH]4)cc3)c3cn[nH]c3n2)cc1
result: > 100 µM

* * *

System: Panel ovarian (Carcinoma cell lines)
procedureSummary: Anticancer activity against human Panel ovarian (Carcinoma cell lines) assessed as lethality incubated for 48 hrs by Sulphorhodamine B assay
Assay type: functional
assayEndpoint: LC50 (concentration killing 50% of cells) (µM)
One number for each entry, in µM.

>>> reportedmeasurement("OCCN1CCN(c2nc(Nc3ccc(-c4nc5ccccc5[nH]4)cc3)c3cn[nH]c3n2)CC1")
6.09
>>> reportedmeasurement("c1ccc2[nH]c(-c3ccc(Nc4nc(N5CCCC5)nc5[nH]ncc45)cc3)nc2c1")
6.85
>>> reportedmeasurement("c1ccc(CNc2nc(Nc3ccc(-c4nc5ccccc5[nH]4)cc3)c3cn[nH]c3n2)cc1")
41.8

Please examine the following record next.
query: // query LC50 (concentration killing 50% of cells) value for entry Fc1ccc(Nc2nc(Nc3ccc(-c4nc5ccccc5[nH]4)cc3)c3cn[nH]c3n2)cc1
result: 28.9

* * *

System: Panel CNS (Carcinoma cell lines)
procedureSummary: Anticancer activity against human Panel CNS (Carcinoma cell lines) assessed as lethality incubated for 48 hrs by Sulphorhodamine B assay
Assay type: functional
Record form. Attribute: LC50 (concentration killing 50% of cells). Fill in for each entry.
Numbers only, in µM.

Take a look at these entries with their results.
>>> reportedmeasurement("Fc1ccc(Nc2nc(Nc3ccc(-c4nc5ccccc5[nH]4)cc3)c3cn[nH]c3n2)cc1")
20.4
>>> reportedmeasurement("OCCN1CCN(c2nc(Nc3ccc(-c4nc5ccccc5[nH]4)cc3)c3cn[nH]c3n2)CC1")
5.72
>>> reportedmeasurement("c1ccc(CNc2nc(Nc3ccc(-c4nc5ccccc5[nH]4)cc3)c3cn[nH]c3n2)cc1")
28.1

Shift focus to the following entry.
query: Which value of LC50 (concentration killing 50% of cells) has been reported for c1ccc2[nH]c(-c3ccc(Nc4nc(N5CCCC5)nc5[nH]ncc45)cc3)nc2c1 in the records?
result: 4.17

* * *

Tested on: Panel renal (Carcinoma cell lines)
procedureSummary: Anticancer activity against human Panel renal (Carcinoma cell lines) assessed as lethality incubated for 48 hrs by Sulphorhodamine B assay
Format: functional
For each entry below, report its LC50 (50% lethal concentration) value.
Answers are plain numbers, in µM.

Some compounds with recorded LC50 (50% lethal concentration):
>>> reportedmeasurement("c1ccc(CNc2nc(Nc3ccc(-c4nc5ccccc5[nH]4)cc3)c3cn[nH]c3n2)cc1")
31.2
>>> reportedmeasurement("Fc1ccc(Nc2nc(Nc3ccc(-c4nc5ccccc5[nH]4)cc3)c3cn[nH]c3n2)cc1")
18.2
>>> reportedmeasurement("OCCN1CCN(c2nc(Nc3ccc(-c4nc5ccccc5[nH]4)cc3)c3cn[nH]c3n2)CC1")
5.85

query: Record request: LC50 (50% lethal concentration) value, item c1ccc2[nH]c(-c3ccc(Nc4nc(N5CCCC5)nc5[nH]ncc45)cc3)nc2c1
result: 7.04

* * *

procedureSummary: Anticancer activity against human Non-small cell lung cancer cell line assessed as total growth inhibition incubated for 48 hrs by Sulphorhodamine B assay
Type: functional
Can you tell me TGI for the items I'm about to list?
One number for each entry, in µM.

Worked set:
>>> reportedmeasurement("c1ccc2[nH]c(-c3ccc(Nc4nc(N5CCCC5)nc5[nH]ncc45)cc3)nc2c1")
3.17
>>> reportedmeasurement("CC[C@H](CO)Nc1nc(NCc2ccccc2)c2ncn(C(C)C)c2n1")
84.8
>>> reportedmeasurement("Fc1ccc(Nc2nc(Nc3ccc(-c4nc5ccccc5[nH]4)cc3)c3cn[nH]c3n2)cc1")
5.37
>>> reportedmeasurement("c1ccc(CNc2nc(Nc3ccc(-c4nc5ccccc5[nH]4)cc3)c3cn[nH]c3n2)cc1")
8.99

Proceeding to the next compound to report its TGI.
query: Suppose we examine the compound OCCN1CCN(c2nc(Nc3ccc(-c4nc5ccccc5[nH]4)cc3)c3cn[nH]c3n2)CC1 ; what TGI value has been reported?
result: 3.23

* * *

Test system: Calf thymus DNA
procedureSummary: Binding affinity to calf thymus DNA assessed as maximum absorption wavelength shift at pH 7.4 at 10 uM by UV-vis absorption spectroscopy
Format: nucleic-acid assay
experimentalSetup: Bos taurus
assayEndpoint: Activity (nm)
Numbers only, in nm.

>>> reportedmeasurement("c1ccc2[nH]c(-c3ccc(Nc4nc(N5CCCC5)nc5[nH]ncc45)cc3)nc2c1")
259
>>> reportedmeasurement("NCCNc1nc(Nc2ccc(-c3nc4ccccc4[nH]3)cc2)c2cn[nH]c2n1")
259
>>> reportedmeasurement("OCCN1CCN(c2nc(Nc3ccc(-c4nc5ccccc5[nH]4)cc3)c3cn[nH]c3n2)CC1")
259
>>> reportedmeasurement("Fc1ccc(Nc2nc(Nc3ccc(-c4nc5ccccc5[nH]4)cc3)c3cn[nH]c3n2)cc1")
257

Provide the reported Activity of each entry below, same order.
1. c1ccc(CNc2nc(Nc3ccc(-c4nc5ccccc5[nH]4)cc3)c3cn[nH]c3n2)cc1
2. c1ccc2[nH]c(-c3ccc(Nc4nc(N5CCOCC5)nc5[nH]ncc45)cc3)nc2c1

result:
264
260

* * *

System: Panel breast (Carcinoma cell lines)
procedureSummary: Anticancer activity against human Panel breast (Carcinoma cell lines) assessed as cell growth inhibition incubated for 48 hrs by Sulphorhodamine B assay
Assay type: functional
Please respond with reported GI50 for every item in the list.
One number for each entry, in nM.

Consider the worked cases shown below.
>>> reportedmeasurement("OCCN1CCN(c2nc(Nc3ccc(-c4nc5ccccc5[nH]4)cc3)c3cn[nH]c3n2)CC1")
1800
>>> reportedmeasurement("c1ccc(CNc2nc(Nc3ccc(-c4nc5ccccc5[nH]4)cc3)c3cn[nH]c3n2)cc1")
2040

Record GI50 per entry; entries follow.
1. c1ccc2[nH]c(-c3ccc(Nc4nc(N5CCCC5)nc5[nH]ncc45)cc3)nc2c1
2. Fc1ccc(Nc2nc(Nc3ccc(-c4nc5ccccc5[nH]4)cc3)c3cn[nH]c3n2)cc1
3. CC[C@H](CO)Nc1nc(NCc2ccccc2)c2ncn(C(C)C)c2n1

result:
[730, 1990, 22700]

* * *

Tested on: Panel leukemia (Carcinoma cell lines)
procedureSummary: Anticancer activity against human Panel leukemia (Carcinoma cell lines) assessed as total growth inhibition incubated for 48 hrs by Sulphorhodamine B assay
Format: functional
assayEndpoint: TGI (µM)
Give bare numbers, in µM.

>>> reportedmeasurement("c1ccc2[nH]c(-c3ccc(Nc4nc(N5CCCC5)nc5[nH]ncc45)cc3)nc2c1")
6.7

Hi, could you look up TGI for each item in my list?
1. OCCN1CCN(c2nc(Nc3ccc(-c4nc5ccccc5[nH]4)cc3)c3cn[nH]c3n2)CC1
2. Fc1ccc(Nc2nc(Nc3ccc(-c4nc5ccccc5[nH]4)cc3)c3cn[nH]c3n2)cc1
3. c1ccc(CNc2nc(Nc3ccc(-c4nc5ccccc5[nH]4)cc3)c3cn[nH]c3n2)cc1

result:
1. 1.22
2. 6.33
3. 6.43

* * *

Test system: Panel CNS (Carcinoma cell lines)
procedureSummary: Anticancer activity against human Panel CNS (Carcinoma cell lines) assessed as cell growth inhibition incubated for 48 hrs by Sulphorhodamine B assay
Type: functional
assayEndpoint: GI50

// below: answered compounds
>>> reportedmeasurement("OCCN1CCN(c2nc(Nc3ccc(-c4nc5ccccc5[nH]4)cc3)c3cn[nH]c3n2)CC1")
"1470 nM"
>>> reportedmeasurement("CC[C@H](CO)Nc1nc(NCc2ccccc2)c2ncn(C(C)C)c2n1")
"24700 nM"
>>> reportedmeasurement("c1ccc2[nH]c(-c3ccc(Nc4nc(N5CCCC5)nc5[nH]ncc45)cc3)nc2c1")
"860 nM"
>>> reportedmeasurement("Fc1ccc(Nc2nc(Nc3ccc(-c4nc5ccccc5[nH]4)cc3)c3cn[nH]c3n2)cc1")
"2060 nM"

query: I am curious: what GI50 value has been reported for c1ccc(CNc2nc(Nc3ccc(-c4nc5ccccc5[nH]4)cc3)c3cn[nH]c3n2)cc1 ?
result: 2960 nM

* * *

Tested on: Panel colon (Carcinoma cell lines)
procedureSummary: Anticancer activity against human Panel colon (Carcinoma cell lines) assessed as total growth inhibition incubated for 48 hrs by Sulphorhodamine B assay
Assay type: functional
Binary label based on TGI with cut-off 5 µM: below gives label 1, not below gives label 0.

Look over these answered cases.
>>> labelclass("c1ccc2[nH]c(-c3ccc(Nc4nc(N5CCCC5)nc5[nH]ncc45)cc3)nc2c1")
"label 0"
>>> labelclass("Fc1ccc(Nc2nc(Nc3ccc(-c4nc5ccccc5[nH]4)cc3)c3cn[nH]c3n2)cc1")
"label 1"
>>> labelclass("OCCN1CCN(c2nc(Nc3ccc(-c4nc5ccccc5[nH]4)cc3)c3cn[nH]c3n2)CC1")
"label 1"

Let us examine a further case.
query: Item CC[C@H](CO)Nc1nc(NCc2ccccc2)c2ncn(C(C)C)c2n1 [SELICICLIB] : TGI beneath 5 µM, strictly?
result: label 0

Origin of measurements: ChEMBL document CHEMBL5260793
